System: DB
EXPERIMENT SUMMARY: OncoPanel cytotoxicity assay
Type: cell-based
CONDITION INFO: Homo sapiens, 72 hour incubation
ASSAY ENDPOINT: IC50

# SMILES NOTATION, IC50
measured = [
    ("CC1(C)CCC2(CC1)N[C@@H](C(=O)N[C@@H]1CC[C@@H](C(N)=O)OC1)[C@H](c1ccnc(Cl)c1F)[C@]21C(=O)Nc2cc(Cl)ccc21", "5.98 µM"),
]

Would you kindly look at the next entry?
Could you share which IC50 value was measured for CC[C@@H]1CNC2(CC2)CN1C(=O)[C@@H]1C[C@@H](F)CN1C(=O)C1=C(C(C)C)N2C(=N[C@@](C)(c3ccc(Cl)nc3)[C@H]2c2ccc(Cl)c(F)c2)S1 ?
> 40 µM

* * *

Can you tell me IC50 for the items I'm about to list?
Test system: EB-3
EXPERIMENT SUMMARY: OncoPanel cytotoxicity assay
Format: cell-based
CONDITION INFO: Homo sapiens, 72 hour incubation

# COMPOUND, IC50
measured = [
    ("CC1(C)CCC2(CC1)N[C@@H](C(=O)N[C@@H]1CC[C@@H](C(N)=O)OC1)[C@H](c1ccnc(Cl)c1F)[C@]21C(=O)Nc2cc(Cl)ccc21 [Compound B]", "> 10 µM"),
]

Would you kindly look at the next entry?
Could you share which IC50 value was measured for CC[C@@H]1CNC2(CC2)CN1C(=O)[C@@H]1C[C@@H](F)CN1C(=O)C1=C(C(C)C)N2C(=N[C@@](C)(c3ccc(Cl)nc3)[C@H]2c2ccc(Cl)c(F)c2)S1 [Compound A] ?
> 40 µM

* * *

System: Detroit 562
EXPERIMENT SUMMARY: OncoPanel cytotoxicity assay
Assay type: cell-based
CONDITION INFO: Homo sapiens, 72 hour incubation
ASSAY ENDPOINT: IC50 (µM)
One number for each entry, in µM.

Could you share which IC50 value was measured for CC1(C)CCC2(CC1)N[C@@H](C(=O)N[C@@H]1CC[C@@H](C(N)=O)OC1)[C@H](c1ccnc(Cl)c1F)[C@]21C(=O)Nc2cc(Cl)ccc21 [Compound B] ?
7.74

* * *

Can you tell me IC50 for the items I'm about to list?
System: LS1034
EXPERIMENT SUMMARY: OncoPanel cytotoxicity assay
Format: cell-based
CONDITION INFO: Homo sapiens, LS-1034, 72 hour incubation

# MOLECULE, IC50
rows = [
    ("CC[C@@H]1CNC2(CC2)CN1C(=O)[C@@H]1C[C@@H](F)CN1C(=O)C1=C(C(C)C)N2C(=N[C@@](C)(c3ccc(Cl)nc3)[C@H]2c2ccc(Cl)c(F)c2)S1 [Compound A]", "> 40 µM"),
]

Would you kindly look at the next entry?
Could you share which IC50 value was measured for CC1(C)CCC2(CC1)N[C@@H](C(=O)N[C@@H]1CC[C@@H](C(N)=O)OC1)[C@H](c1ccnc(Cl)c1F)[C@]21C(=O)Nc2cc(Cl)ccc21 [Compound B] ?
> 10 µM

* * *

Test system: SK-UT-1
EXPERIMENT SUMMARY: OncoPanel cytotoxicity assay
Format: cell-based
CONDITION INFO: Homo sapiens, 72 hour incubation
Can you tell me IC50 for the items I'm about to list?

# SMILES NOTATION, IC50
rows = [
    ("CC[C@@H]1CNC2(CC2)CN1C(=O)[C@@H]1C[C@@H](F)CN1C(=O)C1=C(C(C)C)N2C(=N[C@@](C)(c3ccc(Cl)nc3)[C@H]2c2ccc(Cl)c(F)c2)S1", "> 40 µM"),
]

Could you share which IC50 value was measured for CC1(C)CCC2(CC1)N[C@@H](C(=O)N[C@@H]1CC[C@@H](C(N)=O)OC1)[C@H](c1ccnc(Cl)c1F)[C@]21C(=O)Nc2cc(Cl)ccc21 ?
> 10 µM

* * *

Test system: SCC-4
EXPERIMENT SUMMARY: OncoPanel cytotoxicity assay
Format: cell-based
CONDITION INFO: Homo sapiens, 72 hour incubation
Can you tell me IC50 for the items I'm about to list?

# SMILES NOTATION, IC50
rows = [
    ("CC1(C)CCC2(CC1)N[C@@H](C(=O)N[C@@H]1CC[C@@H](C(N)=O)OC1)[C@H](c1ccnc(Cl)c1F)[C@]21C(=O)Nc2cc(Cl)ccc21", "> 10 µM"),
]

Could you share which IC50 value was measured for CC[C@@H]1CNC2(CC2)CN1C(=O)[C@@H]1C[C@@H](F)CN1C(=O)C1=C(C(C)C)N2C(=N[C@@](C)(c3ccc(Cl)nc3)[C@H]2c2ccc(Cl)c(F)c2)S1 ?
> 40 µM

* * *

System: U-87 MG
EXPERIMENT SUMMARY: OncoPanel cytotoxicity assay
Assay type: cell-based
CONDITION INFO: Homo sapiens, 72 hour incubation
Can you tell me IC50 for the items I'm about to list?
Answers are plain numbers, in nM.

# MOLECULE, ASSAY ENDPOINT, MEAS VALUE
rows = [
    ("CC[C@@H]1CNC2(CC2)CN1C(=O)[C@@H]1C[C@@H](F)CN1C(=O)C1=C(C(C)C)N2C(=N[C@@](C)(c3ccc(Cl)nc3)[C@H]2c2ccc(Cl)c(F)c2)S1 [Compound A]", "IC50", 261),
]

Could you share which IC50 value was measured for CC1(C)CCC2(CC1)N[C@@H](C(=O)N[C@@H]1CC[C@@H](C(N)=O)OC1)[C@H](c1ccnc(Cl)c1F)[C@]21C(=O)Nc2cc(Cl)ccc21 [Compound B] ?
37.6

* * *

Test system: NCI-H460
EXPERIMENT SUMMARY: OncoPanel cytotoxicity assay
Assay type: cell-based
CONDITION INFO: Homo sapiens, 72 hour incubation
Procedure: Cells were grown in RPMI 1640, 10% FBS, 2 mM L-alanyl-L-Glutamine, 1 mM Na Pyruvate, or a special medium in a humidified atmosphere of 5% CO2 at 37° C. Cells were seeded into 384-well plates and incubated in a humidified atmosphere of 5% CO2 at 37° C. Test compounds were added 24 hours post cell seeding. At the same time, a time zero, untreated cell plate was generated as a control. […] Cell proliferation was measured by the signal intensity of the incorporated nuclear dye. […]
ASSAY ENDPOINT: IC50 (nM)
Answers are plain numbers, in nM.

# SMILES NOTATION, UNIT ANNOTATION, MEAS VALUE
data = [
    ("CC[C@@H]1CNC2(CC2)CN1C(=O)[C@@H]1C[C@@H](F)CN1C(=O)C1=C(C(C)C)N2C(=N[C@@](C)(c3ccc(Cl)nc3)[C@H]2c2ccc(Cl)c(F)c2)S1", "nM", 515),
]

Would you kindly look at the next entry?
Could you share which IC50 value was measured for CC1(C)CCC2(CC1)N[C@@H](C(=O)N[C@@H]1CC[C@@H](C(N)=O)OC1)[C@H](c1ccnc(Cl)c1F)[C@]21C(=O)Nc2cc(Cl)ccc21 ?
66.4

* * *

System: DMS53
EXPERIMENT SUMMARY: OncoPanel cytotoxicity assay
Format: cell-based
CONDITION INFO: Homo sapiens, DMS-53, 72 hour incubation
Can you tell me IC50 for the items I'm about to list?

# SMILES NOTATION, IC50
data = [
    ("CC[C@@H]1CNC2(CC2)CN1C(=O)[C@@H]1C[C@@H](F)CN1C(=O)C1=C(C(C)C)N2C(=N[C@@](C)(c3ccc(Cl)nc3)[C@H]2c2ccc(Cl)c(F)c2)S1", "38.4 µM"),
]

Would you kindly look at the next entry?
Could you share which IC50 value was measured for CC1(C)CCC2(CC1)N[C@@H](C(=O)N[C@@H]1CC[C@@H](C(N)=O)OC1)[C@H](c1ccnc(Cl)c1F)[C@]21C(=O)Nc2cc(Cl)ccc21 ?
> 10 µM

* * *

Test system: HMCB
EXPERIMENT SUMMARY: OncoPanel cytotoxicity assay
Assay type: cell-based
CONDITION INFO: Homo sapiens, 72 hour incubation
ASSAY ENDPOINT: IC50 (µM)
One number for each entry, in µM.

Could you share which IC50 value was measured for CC1(C)CCC2(CC1)N[C@@H](C(=O)N[C@@H]1CC[C@@H](C(N)=O)OC1)[C@H](c1ccnc(Cl)c1F)[C@]21C(=O)Nc2cc(Cl)ccc21 ?
5.49

* * *

Test system: SW1783
EXPERIMENT SUMMARY: OncoPanel cytotoxicity assay
Format: cell-based
CONDITION INFO: Homo sapiens, 72 hour incubation
Protocol: Cells were grown in RPMI 1640, 10% FBS, 2 mM L-alanyl-L-Glutamine, 1 mM Na Pyruvate, or a special medium in a humidified atmosphere of 5% CO2 at 37° C. Cells were seeded into 384-well plates and incubated in a humidified atmosphere of 5% CO2 at 37° C. Test compounds were added 24 hours post cell seeding. At the same time, a time zero, untreated cell plate was generated as a control. […] Cell proliferation was measured by the signal intensity of the incorporated nuclear dye. […]
Can you tell me IC50 for the items I'm about to list?

# SMILES NOTATION, IC50
data = [
    ("CC[C@@H]1CNC2(CC2)CN1C(=O)[C@@H]1C[C@@H](F)CN1C(=O)C1=C(C(C)C)N2C(=N[C@@](C)(c3ccc(Cl)nc3)[C@H]2c2ccc(Cl)c(F)c2)S1", "> 40 µM"),
]

Would you kindly look at the next entry?
Could you share which IC50 value was measured for CC1(C)CCC2(CC1)N[C@@H](C(=O)N[C@@H]1CC[C@@H](C(N)=O)OC1)[C@H](c1ccnc(Cl)c1F)[C@]21C(=O)Nc2cc(Cl)ccc21 ?
> 10 µM
